# protocol-notes: Human HepG2 cell viability assay in 384 well format
# Format: toxicity, cell-based
# Parameters: dose 125 nL, time 70.5 hour; concentration not given beside the values
# setup-conditions: HepG2 cells, read-out: Inhibition
Each entry below lists one item and its recorded cytotoxicity at 70.5 h value.
# output: bare number, implied unit %

# example entries with known answers
Cc1csc(N2CCCN(CCC(=O)NC(N)=O)CC2)n1; -1.42
CC(C)N1CCC(Cc2cncc(-c3ccccc3C(=O)O)n2)CC1; -17.6
CN(C)C(=O)c1ccccc1NC(=O)N[C@@H]1c2ccccc2C[C@@H]1O; 0.722
Cc1nc(C2CCN(CC(=O)NC3CC3)CC2)cc(N2CCOCC2)n1; -0.642
O=C(NCc1ccnc(C2CCCOC2)n1)c1cccs1 (centres undefined); 14.1

Ask: I'd like to know its cytotoxicity at 70.5 h. The compound in question is CC(C)N1CCOCC2(CN(Cc3nccs3)CCO2)C1 (centres undefined)
Result: -0.368

Ask: Bench note: what cytotoxicity at 70.5 h did CCSCCC(C)N(C)C(=O)c1cc(C)no1 (centres undefined) show?
Result: -2.61

Ask: // query cytotoxicity at 70.5 h value for entry CC(C)(C)n1ncc2c1CCCC2NCc1ccc2ncccc2c1 (centres undefined)
Result: -4.24

Ask: Which cytotoxicity at 70.5 h value is on record for CCc1nc(C2CCCN2C(=O)c2ncoc2CC)no1 (centres undefined) ?
Result: -5.48

Ask: Give the measured cytotoxicity at 70.5 h of CSc1ccc(C(=O)N2CC(=O)N(CC(C)(C)C)CC(O)C2)cc1 (centres undefined) .
Result: -0.234

Ask: Field request: cytotoxicity at 70.5 h | item: CN(C)S(=O)(=O)c1ccc2c(c1)N(Cc1ccccn1)CCC2
Result: -1.38

Ask: # cytotoxicity at 70.5 h lookup, item CC(C)(C)C(=O)NCCC(=O)NS(=O)(=O)c1cccc(C#N)c1
Result: 15.8

Ask: Using the record for COc1ccc(CC(=O)N2CCCC(n3cc(C)cn3)C2)c(OC)c1 (centres undefined) , report its cytotoxicity at 70.5 h.
Result: -6.34

Ask: Given the entry CSCC(=O)N1CCc2c(cnc(C)c2-c2noc(-c3cscn3)n2)C1 , report its measured cytotoxicity at 70.5 h.
Result: -15.6

Ask: Fill in: cytotoxicity at 70.5 h of CCC(Oc1ccccc1)c1nn2c(CN(CC)CC)nnc2s1 (centres undefined) is ___
Result: -7.01

Ask: Data request, read-out cytotoxicity at 70.5 h, for CC(Cn1ccnc1)NCc1csc2c1CCCC2 (centres undefined)
Result: -0.368

---

# protocol-notes: Human HepG2 cell viability assay in 384 well format
# Assay type: toxicity, cell-based
# Design: dose 125 nL, time 70.5 hour; concentration not given beside the values
# setup-conditions: HepG2 cells, read-out: Inhibition
measured-endpoint: cytotoxicity at 70.5 h (%)
Give the value, in units of %, as a plain number.

Reference set (5 entries):
COc1ccc(CN2CCn3c(C(=O)N(C)C)cnc3C2)cc1; -3.13
CC(O)CN1CCC(CN(C)CCC(=O)NC2CCCCC2)CC1 (stereo unspecified); 14.6
CN(C)CCN1CCN(Cc2cccc(C#N)c2)Cc2cccnc21; -2.4
CN(C)C(CNCc1nc(-c2ccsc2)no1)c1cccc(F)c1 (stereo unspecified); -10.2
CCn1cnnc1CNC(=O)CCC(=O)c1ccc2c(c1)OCCO2; -9.39

Now for the molecule whose cytotoxicity at 70.5 h we want.
Ask: Look up cytotoxicity at 70.5 h: c1nc2n(c1CN1CCCCC1)CCN(C1CCOC1)CC2 (stereo unspecified)
Result: -3.62

---

# reported cytotoxicity at 70.5 h; entries follow
# protocol-notes: Human HepG2 cell viability assay in 384 well format
# Format: toxicity, cell-based
# Set-up: dose 125 nL, time 70.5 hour; concentration not given beside the values
# setup-conditions: HepG2 cells, read-out: Inhibition
Number only, in %; omit the unit.

Recorded cytotoxicity at 70.5 h, per entry:
Cc1ccsc1CNC1CCCN(Cc2noc(C3CC3)n2)C1 (configuration not stated); -2.45
CN1CC(C(=O)Nc2ccc(OCC(F)(F)C(F)F)nc2)CC1=O (configuration not stated); -7.73
CC(NCc1ccccc1Br)c1ccc2[nH]c(=O)[nH]c2c1 (configuration not stated); 3.35
O=C(c1cnn2cccnc12)N1CCCC(n2ccnc2)C1 (configuration not stated); -3.58
CCOCC1c2c(ncn2C)CCN1C(=O)c1cscn1 (configuration not stated); 21.3
CCN1CCN(C)C2(CCN(Cc3ccsc3)CC2)C1=O; -9.43

Ask: Given the compound O=c1[nH][nH]cc1-c1ccnc(NCCCN2CCOCC2)n1 , what is its reported cytotoxicity at 70.5 h?
Result: -1.38

Ask: If you can, please state the reported cytotoxicity at 70.5 h value of COCCC(=O)N1CCCC1c1csc(Nc2ncccn2)n1 (configuration not stated) .
Result: -7.18

Ask: # lookup: cytotoxicity at 70.5 h of O=S(=O)(C1CC1)N1C[C@H]2CCC[C@@]2(COCc2ccccn2)C1
Result: -14.3

Ask: Sample Cc1nc(-c2nnc[nH]2)sc1C(=O)N1CCCC1CC(C)(C)C (configuration not stated) — what was its cytotoxicity at 70.5 h?
Result: -5.06

Ask: cytotoxicity at 70.5 h lookup needed for O=C(c1ccncc1)N1CCCC(c2ncncc2-c2ccncc2)C1 (configuration not stated) , thanks.
Result: -4.43

Ask: I would be grateful if you could share the reported cytotoxicity at 70.5 h for COCCN(Cc1ccccn1)C(=O)Nc1cccnc1-n1cccn1 .
Result: 18.4

---

# protocol-notes: Human HepG2 cell viability assay in 384 well format
# Format: toxicity, cell-based
# Design: dose 125 nL, time 70.5 hour; concentration not given beside the values
# setup-conditions: HepG2 cells, read-out: Inhibition
measured-endpoint: cytotoxicity at 70.5 h (%)
Lab book: enter the figure in %, no units written.

COc1c(CNC2CCCN(c3ncccn3)C2)c(C(C)C)nn1C (configuration not stated); 18.4

Ask: Would you kindly share the measured cytotoxicity at 70.5 h for CC(=O)N1CCC2(CC1)CN(C(C)C)c1ccc(F)cc12 ?
Result: -1.77

Ask: # input compound: CC(C(=O)NCCN1CCCCCC1)n1cncn1 (configuration not stated) ; wanted: its cytotoxicity at 70.5 h
Result: -0.492

---

# protocol-notes: Human HepG2 cell viability assay in 384 well format
# Type: toxicity, cell-based
# Design: dose 125 nL, time 70.5 hour; concentration not given beside the values
# setup-conditions: HepG2 cells, read-out: Inhibition
measured-endpoint: cytotoxicity at 70.5 h (%)
A number alone suffices; assume %.

Consider the following illustrative entries.
Cc1nc(C2CCCN(C(=O)c3ccc(OCC4CC4)cc3)C2)no1 (stereo unspecified); 31
CNc1cc(CNC(=O)c2ccccc2)nc(-c2ccncc2)n1; 11.4
CCCc1cc(C(=O)NCCC2=CCCCC2)[nH]n1; -9.53
Cc1nc(C)c(C(=O)N2Cc3ccccc3OCC2Cn2ccnc2)o1 (stereo unspecified); -1.03
COc1cccc(N2CCN(CC(O)c3ccc(C)cc3)CC2)c1 (stereo unspecified); 3.16

With those in mind, consider the next compound.
Ask: Give its cytotoxicity at 70.5 h value. Item: c1coc(-c2nc(CNCCn3cccn3)cs2)c1
Result: -5.85

---

# protocol-notes: Human HepG2 cell viability assay in 384 well format
# Format: toxicity, cell-based
# Design: dose 125 nL, time 70.5 hour; concentration not given beside the values
# setup-conditions: HepG2 cells, read-out: Inhibition
measured-endpoint: cytotoxicity at 70.5 h (%)
Kindly provide the numeric value in % only, without the unit symbol.

Ask: Find the recorded cytotoxicity at 70.5 h belonging to Cc1cc(C[C@@H]2COC[C@H]2NCc2ccc(Br)s2)on1 and report it.
Result: 22.3

Ask: I would be grateful if you could share the reported cytotoxicity at 70.5 h for COCc1cc(CC2(NC3CCCCC3)COC2)no1 .
Result: 9.57

Ask: Quick one: cytotoxicity at 70.5 h of CC(C)n1cnnc1CNC(=O)CCCOc1ccccc1Cl ?
Result: -6.43

---

# protocol-notes: Human HepG2 cell viability assay in 384 well format
# Format: toxicity, cell-based
# Design: dose 125 nL, time 70.5 hour; concentration not given beside the values
# setup-conditions: HepG2 cells, read-out: Inhibition
measured-endpoint: cytotoxicity at 70.5 h (%)
All answers are understood in %, so give the number only.

Solved cases below.
COC(=O)c1cccc(C(=O)N2CCCC(n3cncn3)C2)c1 (stereo unspecified); -8.97
O=C(C1SCCc2sccc21)N1CCN(CC(F)F)CC1 (stereo unspecified); -5.33
CS(=O)(=O)NC(=O)c1cc(Cl)c2c(c1)OCCCO2; 0.437
COCC1Cn2nnc(-c3cnn(C)c3)c2CN1Cc1ccc(C)s1 (stereo unspecified); 4.51
CCOc1ncnc2c1CCN(C(=O)c1ccncc1F)CC2; -3.16

Let us move to another entry and its cytotoxicity at 70.5 h.
Ask: What does the record list as cytotoxicity at 70.5 h for N#Cc1cccnc1OC1CCN(S(=O)(=O)c2c(F)cccc2F)CC1 ?
Result: 39.9
